reverse-splicing fitness reference
B1: Azoarcus group I ribozyme (parent)
chain: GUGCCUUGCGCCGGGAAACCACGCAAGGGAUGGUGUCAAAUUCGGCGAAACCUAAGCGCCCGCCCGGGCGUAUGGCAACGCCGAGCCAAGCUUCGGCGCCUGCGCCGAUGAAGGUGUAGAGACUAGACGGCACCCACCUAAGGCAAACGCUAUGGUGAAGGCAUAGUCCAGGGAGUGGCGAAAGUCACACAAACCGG

Variants of: B1
Procedure details: reverse-splicing fitness (ratio to wild type); higher = more active; in vitro selection; Mg2+ level not given

Alteration | reverse-splicing fitness
A111G A145G C150U C169U | 0.168
C82A A111U A120G A145U C150A | 0.00949
C82U A120C A145C C150U C169G U176C | 0.00645
C82A A120G A145C C150U | 0.0107
C82U A111U A120U A145G C169G U176C | 0.0035
A145G C150U C169U | 0.382
C82G A111C A145G U176G | 0.0463
A145G | 0.958
A111G A120C A145C C150U C169A | 0.00825
C82U A111G A120U A145G C169U | 0.00406
C82G A111U A120C C150A C169A | 0.0127
A120U A145C C150U | 0.459
A120U C150G C169G | 0.0252
A111G A120U A145C C150A | 0.0434
A111G A120G A145C C150A C169A U176G | 0.00399
C82A A111U A120U A145C C150A C169A | 0.00277
A111U A120G A145U C150U C169A U176C | 0.0207
C82G A111U A120G A145C C150A U176G | 0.00582
C82U A111C A120U A145C C150U C169U U176C | 0.00255
A111C A120U A145G C150A C169A U176A | 0.0071
C82U A120G A145U C150G C169U U176A | 0.0132
C82U A111U A120U A145G C150U C169A U176C | 0.0032
C82G A111C A120G C150U C169G U176G | 0.00537
C82A A145G C150A C169G | 0.00939
C82U A111C A120C A145C C150G C169A | 0.00861
C82G A111C A120G C169U U176C | 0.0141
A111C A120U A145G C169A U176C | 0.00408
C82A A111U A120U A145G C150G C169A U176C | 0.0099
A111U A120U A145U C169U U176A | 0.0087
A145G C150A C169A | 0.0304
C82U A111U A120U A145U C150G U176C | 0.0047
C82G A111G C150A C169G U176G | 0.00751
C82A A111C A120C A145C C169A U176G | 0.00646
A111G A120G A145G C169U U176C | 0.0954
C82A A111C A120C A145G C150U C169U U176A | 0.0121
